# Assay info: EWS/Fli-driven NR0B1 reporter inhibitors, primary screen, A673 cells, NR0B1 luciferase, luminescence, MLPCN library (AID 651661);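 further: firefly luciferase signal divided by Alamar Blue viability fluorescence both relative to DMSO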
# Condition description: viability-normalised, at 12.6 µM, active compounds read high
Among all 350,000 compounds or so, about 2,300 (0.66%) were called active. The full list was thinned out, with actives kept by preference.
// values below are reported inhibition

Molecule | inhibition
CCOc1ccccc1N1CCN(C(=O)COc2ccc3c(C)cc(=O)oc3c2)CC1 | 6.43% (inactive)
CC(C)NC(=O)N(C)C[C@@H]1Oc2ncc(C#Cc3ccncc3)cc2C(=O)N([C@@H](C)CO)C[C@@H]1C | -7.78% (inactive)
CCn1c(C)c(C)c2cc(C(=O)N3CCN(c4cccc(C)c4C)CC3)ccc21 | 5.16% (inactive)
CCOc1ccccc1N1CCN(C(=O)c2ccc3[nH]c(C)c(C)c3c2)CC1 | 55.9% (active)
CC1(C(=O)NCC2CCOCC2)Cc2c(-c3cccc(C(N)=O)c3)ccnc2O1 (stereo not drawn) | 0.349% (inactive)
O=C(C[C@H]1C[C@@H]2c3cc(NC(=O)c4cccnc4)ccc3O[C@@H]2[C@@H](CO)O1)NCc1ccccc1F | 6.33% (inactive)
C[C@H](CO)N1C[C@H](C)[C@@H](CN(C)C(=O)NC2CCCCC2)Oc2ccc(NC(=O)c3ccncc3)cc2CC1=O | -1.15% (inactive)
CCOc1cc(/C=C(/C#N)c2ccc(Cl)cc2)cc(Cl)c1OCC(=O)O | 67.4% (active)
CC(=O)N1[C@H](C(=O)N(C)C)[C@@H](CO)[C@@H]2Cn3c(ccc(-c4ccccc4)c3=O)[C@@H]21 | 0.262% (inactive)
CCOC(=O)CN/C=C(\C#N)c1ccc(F)cc1 | -7.7% (inactive)
COC(=O)Cc1[nH]n(-c2nc3ccccc3s2)c(=O)c1C(C)=Nc1ccc(OC)cc1 | 67.1% (active)
C[C@H](O)C#Cc1ccc2c(c1)O[C@@H](CN(C)CC1CCCC1)[C@H](C)CN([C@@H](C)CO)S2(=O)=O | -1.43% (inactive)
Cc1csc(NC(=O)c2ccc(-c3ccc(Cl)cc3Cl)o2)n1 | -14% (inactive)
COc1cccc(NC(=O)C[C@@H]2CC[C@H]3[C@@H](COc4ccc(NC(=O)C5CCC5)cc4C(=O)N3C)O2)c1 | -3.34% (inactive)
COc1cc(OC)c(C(=O)NCc2ccc3c(c2)OCO3)cc1OC | 9.01% (inactive)
CN(CC(=O)NCc1ccc2c(c1)OCO2)CC(=O)Nc1ccc(F)c(F)c1F | 3.77% (inactive)
C[C@H](CO)N1C[C@H](C)[C@H](CN(C)C(=O)NC2CCCCC2)Oc2ccc(NC(=O)CCCN(C)C)cc2CC1=O | -7.51% (inactive)
COC(=O)C[C@@H]1C[C@H]2c3cc(NC(=O)Nc4ccc(F)cc4)ccc3O[C@H]2[C@@H](CO)O1 | 6.58% (inactive)

###

# Assay info: EWS/Fli-driven NR0B1 reporter inhibitors, primary screen, A673 cells, NR0B1 luciferase, luminescence, MLPCN library (AID 651661);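 further: firefly luciferase signal divided by Alamar Blue viability fluorescence both relative to DMSO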
# Condition description: viability-normalised, at 12.6 µM, active compounds read high
In all, about 350,000 compounds went through this assay and about 2,300 (0.66%) were called active. For the sample, actives were picked, then their nearest neighbours and some compounds at random.

Compound | inhibition
COCC(=O)N1[C@H](CO)[C@H](c2ccccc2)C12CN(C(=O)NC1CCCCC1)C2 | -12.4% (inactive)
COC(=O)C[C@H]1CC[C@H]2[C@@H](COc3ccc(NC(=O)Nc4cccc(F)c4)cc3C(=O)N2C)O1 | -0.36% (inactive)
COC(=O)C[C@@H]1CC[C@@H]2[C@H](COc3ccc(NC(=O)c4cccc(F)c4)cc3C(=O)N2C)O1 | 61.7% (active)
CN(C)CCCNC(=O)C[C@H]1CC[C@H]2[C@@H](COC[C@H](O)CN2CC2CCCCC2)O1 | -0.386% (inactive)
C[C@H]1CN([C@@H](C)CO)C(=O)c2c(c3ccccc3n2C)-c2ccccc2CO[C@H]1CN(C)C(=O)Nc1ccc(F)cc1 | -3.34% (inactive)
CCN1/C(=C\c2ccc3ccccc3[n+]2CC)Sc2cc(C)ccc21 | 56.7% (active)
N#Cc1ccc(-c2ccc([C@H]3[C@H](CO)N4C(=O)CN(C(=O)Cc5ccccc5)C[C@@H]34)cc2)cc1 | -6.19% (inactive)
CC(OC(=O)c1ccc(Cl)cc1O)C(=O)NCCC1=CCCCC1 (centres undefined) | 1.44% (inactive)
COC(=O)c1ccc(NCc2cc(O)ccc2O)cc1 | 61.8% (active)
